- experimental.system: UniProt:P31213
- method.description: Cell free assay of 5α-reductase, microsomes of rat 1A cells expressing type 2 isoenzyme (HRED2)
- Format: biochemical
- Parameters: expressed in transfected cells; host or cells: rat 1A cells infected with pMV7 retrovirus; microsomes
- setup.conditions: cell free assay; Table 1 flavanoids; read-out: HRED2 IC50
Can you tell me IC50 for the items I'm about to list?

Field: example entries. Status: answers known.
compound: O=c1cc(-c2ccccc2)oc2c1ccc1ccccc12
experimental.system: UniProt:P31213
reading: > 100 µM
//
compound: COc1ccc(-c2coc3cc(O)cc(O)c3c2=O)cc1
experimental.system: UniProt:P31213
reading: 17 µM
//
compound: O=c1cc(-c2ccccc2)oc2ccc3ccccc3c12
experimental.system: UniProt:P31213
reading: > 100 µM
//
compound: O=c1cc(-c2ccccc2)oc2cc(O)cc(O)c12
experimental.system: UniProt:P31213
reading: > 100 µM
//
compound: O=C(O[C@@H]1Cc2c(O)cc(O)cc2O[C@@H]1c1ccc(O)c(O)c1)c1cc(O)c(O)c(O)c1 [Epicatechin Gallate]
experimental.system: UniProt:P31213
reading: 60 µM
//
compound: Oc1cc(O)c2c(c1)O[C@H](c1cc(O)c(O)c(O)c1)[C@H](O)C2 [Epigallocatechin]
experimental.system: UniProt:P31213
reading: > 100 µM

Batch request: IC50 per item, same order as input.
1. Oc1cc(O)c2c(c1)O[C@H](c1ccc(O)c(O)c1)[C@H](O)C2 [Epicatechin]
2. O=C1c2c(O)cc(O)cc2O[C@H](c2ccc(O)c(O)c2)[C@H]1O
3. O=c1cc(-c2ccccc2)oc2ccccc12

Result ::
["> 100 µM", "> 100 µM", "> 100 µM"]

Your task in this section: give IC50 for each listed record.
1. O=c1c(O)c(-c2ccc(O)c(O)c2)oc2cc(O)cc(O)c12
2. C[C@@H]1O[C@@H](OC[C@H]2O[C@@H](Oc3c(-c4ccc(O)c(O)c4)oc4cc(O)cc(O)c4c3=O)[C@H](O)[C@@H](O)[C@@H]2O)[C@H](O)[C@H](O)[C@H]1O
3. O=c1c(O)c(-c2ccc(O)cc2)oc2cc(O)cc(O)c12
4. O=c1c(O)c(-c2ccc(O)c(O)c2)oc2cc(O)ccc12

Result ::
1. > 100 µM
2. > 100 µM
3. 12 µM
4. > 100 µM

Query :: Can you look up the measured IC50 of O=c1c(O)c(-c2ccc(O)cc2O)oc2cc(O)cc(O)c12 for me?
Result :: > 100 µM

----------
Give measured inhibition at 100 µM for each item. Keep answers brief.
- experimental.system: type 2 human 5α-reductase (HRED2) (Homo sapiens, UniProt P31213)
- method.description: Whole cell assay of 5α-reductase, type 2 isoenzyme;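 also: intact rat 1A cells genetically modified to carry human type 2 5α-reductase served as the enzyme source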
- Type: cell-based
- Set-up: expressed in transfected cells; host or cells: rat 1A cells infected with pMV7 retrovirus
- setup.conditions: 100 μM, Table 7
One number for each entry, in %.

The following molecules have reported results that may help.
molecule: Oc1ccc2c(O)c3ccccc3cc2c1O
unit.symbol: %
inhibition at 100 µM: 31
//
molecule: O=C1c2ccccc2C(=O)c2c(O)c(O)cc(O)c21
unit.symbol: %
inhibition at 100 µM: 7
//
molecule: O=c1c(O)c(-c2ccc(O)c(O)c2)oc2cc(O)cc(O)c12
unit.symbol: %
inhibition at 100 µM: 29
//
molecule: Cc1cc2c(C(C)C)c(O)c(O)c(C=O)c2c(O)c1-c1c(C)cc2c(C(C)C)c(O)c(O)c(C=O)c2c1O
unit.symbol: %
inhibition at 100 µM: 99
//
molecule: CCCCCCCC/C=C\CCCCCCCC(=O)O [Oleic Acid, Oleic Acid C18:1 CIS 9]
unit.symbol: %
inhibition at 100 µM: 45
//
molecule: COC(=O)c1cc(O)c(O)c(O)c1 [Methylgallate]
unit.symbol: %
inhibition at 100 µM: 0

Need inhibition at 100 µM for each of these molecules.
1. CCCCCCCCOC(=O)c1cc(O)c(O)c(O)c1 [Octyl Gallate]
2. CCCCC/C=C\C/C=C\C/C=C\CCCCC(=O)O [Gamma-Linolenic Acid, Gamma-Linolenic Acid C18:3 CIS 6.9,12]
3. O=c1c(O)c(-c2ccc(O)cc2)oc2cc(O)cc(O)c12

Result ::
1. 94
2. 86
3. 85

----------
- experimental.system: type 2 human 5α-reductase (HRED2) (Homo sapiens, UniProt P31213)
- Sequence (P31213 1-254): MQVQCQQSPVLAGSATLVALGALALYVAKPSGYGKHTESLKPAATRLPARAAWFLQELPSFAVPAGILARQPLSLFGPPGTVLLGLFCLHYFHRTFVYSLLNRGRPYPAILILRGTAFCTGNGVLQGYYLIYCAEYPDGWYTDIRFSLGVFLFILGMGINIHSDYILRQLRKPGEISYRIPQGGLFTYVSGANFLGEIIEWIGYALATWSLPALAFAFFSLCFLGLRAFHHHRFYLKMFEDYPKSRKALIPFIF
- method.description: Cell free assay of 5α-reductase, microsomes of rat 1A cells expressing type 2 isoenzyme (HRED2);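 also: labeled testosterone and its product dihydrotestosterone measured in microsomal reaction extracts via thin layer chromatography plus radioanalytic scanning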
- Assay type: biochemical
- Design: expressed in transfected cells; host or cells: rat 1A cells infected with pMV7 retrovirus; microsomes
- setup.conditions: cell free assay; Table 2 catechols; read-out: HRED2 IC50
pIC50: −log10 of the molar value.
value.type: pIC50

// below: answered compounds
compound: OC1c2ccccc2-c2ccccc2C1O (stereo not drawn) [Cnc]
pIC50: < 4.00
--
compound: COc1cc2ccc(=O)oc2c(O)c1O [Fraxetin]
pIC50: < 4.00

Proceed to the following item.
Query :: Which pIC50 is listed for O=C(/C=C/c1ccc(O)c(O)c1)OCCc1ccccc1 [Caffeic Acid Phenethyl Ester] ?
Result :: < 4.00

----------
Record form. Attribute: inhibition at 100 µM. Fill in for each entry.
- experimental.system: type 1 human 5α-reductase (HRED1) (Homo sapiens, UniProt P18405)
- Sequence (P18405 whole entry): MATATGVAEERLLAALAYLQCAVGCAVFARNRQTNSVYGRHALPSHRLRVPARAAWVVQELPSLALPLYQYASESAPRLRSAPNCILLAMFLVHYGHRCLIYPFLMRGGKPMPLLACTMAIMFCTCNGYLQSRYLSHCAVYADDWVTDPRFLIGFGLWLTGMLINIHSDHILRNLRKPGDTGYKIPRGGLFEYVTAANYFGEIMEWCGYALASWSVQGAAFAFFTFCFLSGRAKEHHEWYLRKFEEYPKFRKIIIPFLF
- method.description: Cell free assay of 5α-reductase, microsomes of rat 1A cells expressing type 1 isoenzyme (HRED1);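 also: microsomes from rat 1A cells expressing human type 1 5α-reductase, conversion of radiolabeled testosterone to dihydrotestosterone quantified by thin layer chromatography with radioanalytic scanning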
- Type: biochemical
- Set-up: expressed in transfected cells; host or cells: rat 1A cells infected with pMV7 retrovirus; microsomes
- setup.conditions: 100 uM; cell free assay; Table 2; read-out: HRED1 % Inhibition @ 100 uM

The cases that follow already have their inhibition at 100 µM on record.
molecule: CCCCCCCCCCCCOC(=O)c1cc(O)c(O)c(O)c1 [Dodecylgallate]
inhibition at 100 µM: 88%

molecule: O=c1c(Br)cc2c(-c3ccccc3S(=O)(=O)O)c3cc(Br)c(O)c(O)c3oc-2c1O
inhibition at 100 µM: 98%

molecule: COC(=O)c1cc(O)c(O)c(O)c1 [Methylgallate]
inhibition at 100 µM: 5%

Now examine the next entry.
Query :: # get_value(readout='inhibition at 100 µM', item= O=C1C=CC(=C(c2ccc(O)c(O)c2)c2ccccc2S(=O)(=O)O)C=C1O (mixture of isomers) )
Result :: 85%

----------
- experimental.system: type 2 human 5α-reductase (HRED2) (Homo sapiens)
- method.description: Whole cell assay of 5α-reductase, type 2 isoenzyme
- Assay type: cell-based
- Parameters: expressed in transfected cells; host or cells: rat 1A cells infected with pMV7 retrovirus
- setup.conditions: 100 μM, Table 7
Provide the recorded inhibition at 100 µM for the entries that follow.
One number for each entry, in %.

Some molecules with known inhibition at 100 µM results, for comparison:
molecule: CCCCCC#CCC#CCC#CCC#CCCCC(=O)O [5,8,11,14-Eocpsatetraynoic Acid, 5,8,11,14-eicosatetraynoic acid]
experimental.system: type 2 human 5α-reductase (HRED2) (Homo sapiens)
value.type: inhibition at 100 µM
reading: 86
--
molecule: Oc1cc(O)c2c(c1)O[C@H](c1cc(O)c(O)c(O)c1)[C@H](O)C2 [Epigallocatechin]
experimental.system: type 2 human 5α-reductase (HRED2) (Homo sapiens)
value.type: inhibition at 100 µM
reading: 1
--
molecule: CCCCCCCCCCCCCCCCCC(=O)O [Stearic Acid, Stearic Acid C18:0]
experimental.system: type 2 human 5α-reductase (HRED2) (Homo sapiens)
value.type: inhibition at 100 µM
reading: 23

Go through the list and state inhibition at 100 µM for each entry.
1. CCCOC(=O)c1cc(O)c(O)c(O)c1 [Propylgallate]
2. CC1=CC(=O)c2ccccc2C1=O [Menadione]
3. Oc1ccccc1O [Catechol]

Result ::
[0, 62, 3]

----------
- experimental.system: type 1 human 5α-reductase (HRED1) (Homo sapiens)
- method.description: Cell free assay of 5α-reductase, microsomes of rat 1A cells expressing type 1 isoenzyme (HRED1)
- Assay type: biochemical
- Set-up: expressed in transfected cells; host or cells: rat 1A cells infected with pMV7 retrovirus; microsomes
- setup.conditions: cell free assay; Table 1 flavanoids; read-out: HRED1 IC50
pIC50: −log10 of the molar value.
value.type: pIC50

Recorded pIC50, per entry:
compound: O=c1cc(-c2ccccc2)oc2ccccc12
experimental.system: type 1 human 5α-reductase (HRED1) (Homo sapiens)
value.type: pIC50
reading: < 4.00
//
compound: O=C(O[C@@H]1Cc2c(O)cc(O)cc2O[C@@H]1c1ccc(O)c(O)c1)c1cc(O)c(O)c(O)c1 [Epicatechin Gallate]
experimental.system: type 1 human 5α-reductase (HRED1) (Homo sapiens)
value.type: pIC50
reading: 4.96
//
compound: O=c1cc(-c2ccccc2)oc2ccc3ccccc3c12
experimental.system: type 1 human 5α-reductase (HRED1) (Homo sapiens)
value.type: pIC50
reading: < 4.00
//
compound: O=c1c(O)c(-c2ccc(O)c(O)c2)oc2cc(O)ccc12
experimental.system: type 1 human 5α-reductase (HRED1) (Homo sapiens)
value.type: pIC50
reading: 4.24
//
compound: O=c1c(O)c(-c2ccc(O)cc2)oc2cc(O)cc(O)c12
experimental.system: type 1 human 5α-reductase (HRED1) (Homo sapiens)
value.type: pIC50
reading: < 4.00
//
compound: C[C@@H]1O[C@@H](OC[C@H]2O[C@@H](Oc3c(-c4ccc(O)c(O)c4)oc4cc(O)cc(O)c4c3=O)[C@H](O)[C@@H](O)[C@@H]2O)[C@H](O)[C@H](O)[C@H]1O
experimental.system: type 1 human 5α-reductase (HRED1) (Homo sapiens)
value.type: pIC50
reading: < 4.00

Batch lookup, pIC50 per entry.
1. O=c1c(O)c(-c2ccc(O)cc2O)oc2cc(O)cc(O)c12
2. O=c1cc(-c2ccccc2)oc2c1ccc1ccccc12
3. Oc1cc(O)c2c(c1)O[C@H](c1cc(O)c(O)c(O)c1)[C@H](O)C2 [Epigallocatechin]

Result ::
["< 4.00", "< 4.00", "< 4.00"]
